Ref: patent EP1117659B1

A set of molecules tested on UniProt:P29317, with measured IC50:
Measure Name: IC50

[[record]]
compound = "CCOc1cc2ncc(C#N)c(Nc3ccc4c(c3)CCC4)c2cc1OCC"
measure_name = "IC50"
readout_value = "> 2.68 µM"

[[record]]
compound = "CCOc1cc2ncc(C#N)c(Nc3ccc4[nH]c(=O)oc(=O)c4c3)c2cc1OCC"
measure_name = "IC50"
readout_value = "> 47.8 µM"

[[record]]
compound = "COc1cc2ncc(C#N)c(Nc3ccc4ncccc4c3)c2cc1OC"
measure_name = "IC50"
readout_value = "> 28.1 µM"


* * *

- Experimental System: Kinase insert Domain containing Receptor (KDR: the catalytic domain of the VEGF receptor) (Homo sapiens)
pIC50: −log10 of the molar value.
Measure Name: pIC50

[[record]]
compound = "COc1cc2ncc(C#N)c(Nc3ccc4sc(C)nc4c3)c2cc1OC"
readout_value = "< 4.58"

[[record]]
compound = "COc1cc2c(Nc3ccc4cn[nH]c4c3)c(C#N)cnc2c(OC)c1OC"
readout_value = "< 4.10"

[[record]]
compound = "COc1cc2c(Nc3ccc4cn[nH]c4c3)c(C#N)cnc2cc1OCCN1CCOCC1"
readout_value = 5.35

[[record]]
compound = "COc1cc2ncc(C#N)c(Nc3cccc4ncccc34)c2cc1OC"
readout_value = "< 4.55"

[[record]]
compound = "CCOc1cc2ncc(C#N)c(Nc3ccc4c(C)cc(=O)oc4c3)c2cc1OCC"
readout_value = "< 4.14"

[[record]]
compound = "CCOc1cc2ncc(C#N)c(Nc3ccc4c(c3)C(=O)OC4)c2cc1OCC"
readout_value = "< 4.11"

[[record]]
compound = "CCOc1cc2ncc(C#N)c(Nc3ccc4c(c3)C(=O)NC4=O)c2cc1OCC"
readout_value = "< 4.13"

[[record]]
compound = "CCOc1cc2ncc(C#N)c(Nc3ccc4cc[nH]c4c3)c2cc1OCC"
readout_value = 5.27

[[record]]
compound = "COc1ccc2ncc(C#N)c(Nc3ccc4nn[nH]c4c3)c2c1"
readout_value = 4.02


* * *

- Experimental System: Kinase insert Domain containing Receptor (KDR: the catalytic domain of the VEGF receptor) (Homo sapiens, UniProt P35968)
- Sequence (P35968 834-1162 limits assumed): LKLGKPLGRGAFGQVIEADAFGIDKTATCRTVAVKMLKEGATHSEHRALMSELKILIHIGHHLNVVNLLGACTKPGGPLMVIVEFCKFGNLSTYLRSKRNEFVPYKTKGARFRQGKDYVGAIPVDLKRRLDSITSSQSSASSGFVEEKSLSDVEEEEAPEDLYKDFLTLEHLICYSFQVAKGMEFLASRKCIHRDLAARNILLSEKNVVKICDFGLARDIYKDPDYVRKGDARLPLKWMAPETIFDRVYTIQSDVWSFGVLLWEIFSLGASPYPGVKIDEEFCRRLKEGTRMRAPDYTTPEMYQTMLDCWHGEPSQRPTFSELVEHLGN
Measure Name: IC50

[[record]]
compound = "CCOc1cc2ncc(C#N)c(Nc3ccc4c(c3)CCC4)c2cc1OCC"
readout_value = "> 80.3 µM"

[[record]]
compound = "COCCOc1cc2ncc(C#N)c(Nc3ccc4cn[nH]c4c3)c2cc1OCCOC"
readout_value = "23.1 µM"

[[record]]
compound = "COc1cc2c(Nc3ccc4cn[nH]c4c3)c(C#N)cnc2cc1OCCCl"
readout_value = "> 2.54 µM"

[[record]]
compound = "COc1cc2ncc(C#N)c(Nc3ccc4[nH]ccc4c3)c2cc1OC"
readout_value = "0.581 µM"

[[record]]
compound = "COc1cc2ncc(C#N)c(Nc3ccc4[nH]c(=O)sc4c3)c2cc1OC"
readout_value = "> 26.4 µM"

[[record]]
compound = "COc1cc2c(Nc3ccc4nn[nH]c4c3)c(C#N)cnc2c(OC)c1OC"
readout_value = "> 79.7 µM"


* * *

pIC50, Epithelial Cell Kinase (ECK) (Homo sapiens), per-entry values.
pIC50: −log10 of the molar value. Where a name gives a salt, the structure may show the parent alone.
Measure Name: pIC50

[[record]]
compound = "COc1ccc2c(Nc3ccc4nn[nH]c4c3)c(C#N)cnc2c1"
measure_name = "pIC50"
readout_value = "< 4.50"

[[record]]
compound = "COc1cc2ncc(C#N)c(Nc3ccc4[nH]c(C)nc4c3)c2cc1OC"
measure_name = "pIC50"
readout_value = "< 4.56"

[[record]]
compound = "COc1cc2ncc(C#N)c(Nc3ccc4nn[nH]c4c3)c2cc1OCCCN1CCOCC1 [Example 140, hydrochloride]"
measure_name = "pIC50"
readout_value = 5.66

[[record]]
compound = "COc1cc2ncc(C#N)c(Nc3cccc4ncccc34)c2cc1OC"
measure_name = "pIC50"
readout_value = "< 4.55"

[[record]]
compound = "COc1cc2ncc(C#N)c(Nc3ccc4[nH]cnc4c3)c2cc1OC"
measure_name = "pIC50"
readout_value = "< 4.54"

[[record]]
compound = "CCOc1cc2ncc(C#N)c(Nc3ccc4cc[nH]c4c3)c2cc1OCC"
measure_name = "pIC50"
readout_value = "< 4.27"

[[record]]
compound = "COc1cccc2c(Nc3ccc4nn[nH]c4c3)c(C#N)cnc12"
measure_name = "pIC50"
readout_value = "< 4.50"

[[record]]
compound = "COc1cccc2c(Nc3ccc4cn[nH]c4c3)c(C#N)cnc12"
measure_name = "pIC50"
readout_value = "< 4.20"

[[record]]
compound = "COc1cc2ncc(C#N)c(Nc3ccc4sc(C)nc4c3)c2cc1OC"
measure_name = "pIC50"
readout_value = "< 4.58"

[[record]]
compound = "COc1cc2ncc(C#N)c(Nc3cccc4cnccc34)c2cc1OC"
measure_name = "pIC50"
readout_value = "< 4.55"

[[record]]
compound = "CCOc1cc2ncc(C#N)c(Nc3ccc4c(c3)C(=O)OC4)c2cc1OCC"
measure_name = "pIC50"
readout_value = "< 4.29"

[[record]]
compound = "COc1cc2ncc(C#N)c(Nc3ccc4cn[nH]c4c3)c2cc1OCCCN1CCOCC1 [Example 139, hydrochloride]"
measure_name = "pIC50"
readout_value = "< 5.66"

[[record]]
compound = "COc1cc2c(Nc3ccc4nn[nH]c4c3)c(C#N)cnc2c(OC)c1OC"
measure_name = "pIC50"
readout_value = "< 4.58"

